molecular target: Sodium-dependent dopamine transporter (Rattus norvegicus, UniProt P23977); experiment: Inhibition of [3H]WIN-35428 binding to dopamine transporter in rat striatal membranes.
Sequence (P23977 whole entry): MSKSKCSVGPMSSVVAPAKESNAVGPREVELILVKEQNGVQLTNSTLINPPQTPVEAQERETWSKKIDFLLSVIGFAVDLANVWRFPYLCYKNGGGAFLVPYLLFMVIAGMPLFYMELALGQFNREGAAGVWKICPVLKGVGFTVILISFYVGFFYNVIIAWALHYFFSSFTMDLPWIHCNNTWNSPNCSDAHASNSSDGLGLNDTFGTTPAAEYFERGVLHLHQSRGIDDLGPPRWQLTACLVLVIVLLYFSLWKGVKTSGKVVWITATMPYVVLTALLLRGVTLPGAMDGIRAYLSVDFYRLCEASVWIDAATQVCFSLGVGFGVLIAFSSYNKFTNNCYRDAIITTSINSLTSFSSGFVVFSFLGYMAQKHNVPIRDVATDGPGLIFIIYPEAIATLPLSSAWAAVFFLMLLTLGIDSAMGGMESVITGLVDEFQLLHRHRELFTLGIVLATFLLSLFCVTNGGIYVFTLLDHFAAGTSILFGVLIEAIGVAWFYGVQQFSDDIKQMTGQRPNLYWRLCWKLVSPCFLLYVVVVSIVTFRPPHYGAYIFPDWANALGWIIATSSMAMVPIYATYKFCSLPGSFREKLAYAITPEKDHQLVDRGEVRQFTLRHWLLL
Each entry below carries its recorded log10(IC50).
propertyLabel: log10(IC50) (log10 of the value in nM)

[
  {
    "molecule": "CN1C2CCC1C(C(=O)OCCc1ccc(N)cc1)[C@H](OC(=O)c1ccccc1)C2 (stereo not given in full)",
    "log10(IC50)": 1.86
  },
  {
    "molecule": "COC(=O)[C@H]1C2CCC(C[C@@H]1OC(=O)c1ccccc1)N2 (stereo in doubt; form 2) [PSEUDOCOCAINE]",
    "log10(IC50)": 4.20
  },
  {
    "molecule": "COC(=O)C1C2CCC(C[C@H]1c1ccc(N)cc1)N2C (stereo not given in full)",
    "log10(IC50)": 1.40
  },
  {
    "molecule": "CN1C2CCC1C(CO)[C@H](OC(=O)c1ccccc1)C2 (stereo not given in full)",
    "log10(IC50)": 2.75
  },
  {
    "molecule": "COC(=O)[C@H]1C2CCC(C[C@@H]1OC(=O)c1ccccc1)N2 (stereo in doubt; form 1) [PSEUDOCOCAINE]",
    "log10(IC50)": 4.35
  }
]
